Recorded IP1 G-protein assay pEC50, one value per entry.
Molecular target: T1, human angiotensin 2 type 1 receptor (human, UniProt P30556 1-359)
T1 sequence (looked up): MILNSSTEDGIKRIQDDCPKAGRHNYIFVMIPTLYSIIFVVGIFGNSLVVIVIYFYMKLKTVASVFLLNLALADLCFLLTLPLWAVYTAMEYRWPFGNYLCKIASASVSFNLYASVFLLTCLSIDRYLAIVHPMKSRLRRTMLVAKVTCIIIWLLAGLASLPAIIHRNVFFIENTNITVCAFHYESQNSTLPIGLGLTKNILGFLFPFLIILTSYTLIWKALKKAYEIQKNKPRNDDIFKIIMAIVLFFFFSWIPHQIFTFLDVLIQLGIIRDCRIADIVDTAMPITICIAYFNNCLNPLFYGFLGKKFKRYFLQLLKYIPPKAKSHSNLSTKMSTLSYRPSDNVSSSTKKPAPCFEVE
Assay: cell-based or functional assay
Where no end group is shown, it is not given here. [ ]: non-standard residue; d: D form. Ac6c = NC1(C(=O)O)CCCCC1; Ac5c = NC1(C(=O)O)CCCC1; Aib = CC(C)(N)C(=O)O; Sar = CNCC(=O)O

binder: [Sar]RVYPHPV [SEQ ID NO: 6 (Sar-Arg-Val-Tyr-Pro-His-Pro-Val)]
IP1 G-protein assay pEC50: < 9.2

binder: [Sar]RVY[Ac5c]HPV [SEQ ID NO: 20 (Sar-Arg-Val-Tyr-cyPen-His-Pro-Val)]
IP1 G-protein assay pEC50: < 9.2

binder: [Sar]RVY[Aib]HPV [SEQ ID NO: 33 (Sar-Arg-Val-Tyr-AA01-His-Pro-Val)]
IP1 G-protein assay pEC50: < 9.2

binder: [Sar]RVY[Ac6c]HPM [SEQ ID NO: 16 (Sar-Arg-Val-Tyr-cyHex-His-Pro-Met)]
IP1 G-protein assay pEC50: < 9.2

binder: [Sar]RVY[Ac6c]HPQ [SEQ ID NO: 38 (Sar-Arg-Val-Tyr-cyHex-His-Pro-Gln)]
IP1 G-protein assay pEC50: < 9.2

binder: [Sar]RVYPHP[dA] [SEQ ID NO: 60 (Sar-Arg-Val-Tyr-Pro-His-Pro-D-Ala)]
IP1 G-protein assay pEC50: < 9.2

binder: [Sar]RVY[Ac6c]HPI [SEQ ID NO: 11 (Sar-Arg-Val-Tyr-cyHex-His-Pro-Ile)]
IP1 G-protein assay pEC50: < 9.2
